Origin of measurements: ChEMBL document CHEMBL1135921

assay: The oral Area under the plasma concentration curve(AUC) measured;when administered perorally; assay type: ADME
outcomeMeasure: AUC (ng·h/mL)
Please give a number only; it is taken to be in ng·h/mL.

Exercise: # lookup: AUC of COc1cc(-c2ncn(C)c2-c2ccc3ccn(C)c3c2)cc(OC)c1OC
Key: 461

Exercise: # lookup: AUC of COc1ccc(-c2c(-c3cc(OC)c(OC)c(OC)c3)ncn2C)cc1N
Key: 10800

Exercise: # lookup: AUC of COc1cc(-c2ncn(C)c2-c2cc(F)c3c(ccn3C)c2)cc(OC)c1OC
Key: 340

Exercise: # lookup: AUC of COc1cc(-c2[nH]cnc2-c2ccc3ccn(C)c3c2)cc(OC)c1OC
Key: 14.2

Exercise: # lookup: AUC of COc1cc(-c2[nH]cnc2-c2ccc(N(C)C)cc2)cc(OC)c1OC
Key: 16.2

* * *

So I've got a bunch of molecules here, and I need their bioavailability values.
test: Bioavailability; assay type: ADME, organism-based; details: eutheria, in vivo
Please give a number only; it is taken to be in %.

Exercise: # lookup: bioavailability of COc1ccc(-c2ncn(C)c2-c2cc(OC)c(OC)c(OC)c2)cc1N
Key: 29.9

Exercise: # lookup: bioavailability of COc1cc(-c2cncn2-c2ccc(N(C)C)cc2)cc(OC)c1OC
Key: 0.01

Exercise: # lookup: bioavailability of COc1cc(-c2ncn(C)c2-c2cc(Cl)c3c(ccn3C)c2)cc(OC)c1OC
Key: 10.2

Exercise: # lookup: bioavailability of COc1ccc(-c2ncoc2-c2cc(OC)c(OC)c(OC)c2)cc1N
Key: 0

Exercise: # lookup: bioavailability of COc1cc(-c2[nH]cnc2-c2ccc3ccn(C)c3c2)cc(OC)c1OC
Key: 0.31

Exercise: # lookup: bioavailability of COc1cc(-c2ncn(C)c2-c2ccc3ccn(C)c3c2)cc(OC)c1OC
Key: 32

Exercise: # lookup: bioavailability of COc1ccc(-c2ocnc2-c2cc(OC)c(OC)c(OC)c2)cc1N
Key: 0.5

* * *

test system: NCI-H460; assay: Inhibition of human NCI-H460 (human lung large cell carcinoma, MDR negative) cell growth; type: functional, cell-based
pIC50: −log10 of the molar value.
Category scheme (pIC50): bucket 1 (below 7), bucket 2 (7 to below 8), bucket 3 (8 or more)

Exercise: State the band of COc1cc(-n2cncc2-c2ccc3[nH]ccc3c2)cc(OC)c1OC
Key: bucket 1

Exercise: State the band of COc1cc(-n2ccnc2-c2ccc(N(C)C)cc2)cc(OC)c1OC
Key: bucket 1

Exercise: State the band of COc1ccc(-c2ncoc2-c2cc(OC)c3c(c2)OCO3)cc1N
Key: bucket 2

Exercise: State the band of COc1ccc(-c2nc(C)oc2-c2cc(OC)c(OC)c(OC)c2)cc1O
Key: bucket 2

Exercise: State the band of COc1ccc(-c2ccnn2-c2cc(OC)c(OC)c(OC)c2)cc1N
Key: bucket 2

Exercise: State the band of COc1cc(-c2nccnc2-c2ccc(N(C)C)cc2)cc(OC)c1OC
Key: bucket 1

Exercise: State the band of COc1ccc(-c2ncn(C)c2-c2cc(OC)c(OC)c(OC)c2)cc1N
Key: bucket 2

Exercise: State the band of COc1cc(-c2[nH]cnc2-c2ccc(N(C)C)cc2)cc(OC)c1OC
Key: bucket 3

Exercise: State the band of COc1cc(-c2ncoc2-c2ccc(N(C)C)cc2)cc(OC)c1OC
Key: bucket 2

Exercise: State the band of COc1cc(-c2cncn2-c2ccc(N(C)C)cc2)cc(OC)c1OC
Key: bucket 1

Exercise: State the band of COc1cc(-c2ncn(C)c2-c2ccc3ccn(C)c3c2)cc(OC)c1OC
Key: bucket 2

Exercise: State the band of COc1cc(-c2c(-c3ccc4c(ccn4C)c3)ncn2C)cc(OC)c1OC
Key: bucket 2

Exercise: State the band of COc1cc(-c2[nH]cnc2-c2ccc3ccn(C)c3c2)cc(OC)c1OC
Key: bucket 3

Exercise: State the band of COc1ccc(-c2ocnc2-c2cc(OC)c(OC)c(OC)c2)cc1O
Key: bucket 3

Exercise: State the band of COc1cc(-n2cncc2-c2ccc3c(ccn3C)c2)cc(OC)c1OC
Key: bucket 2

Exercise: State the band of COc1cc(-c2ncn(C)c2-c2cc(F)c3c(ccn3C)c2)cc(OC)c1OC
Key: bucket 2

Exercise: State the band of COc1ccc(-c2c(-c3cc(OC)c(OC)c(OC)c3)ncn2C)cc1N
Key: bucket 1

Exercise: State the band of COc1cc(-c2[nH]c(-c3ccoc3)nc2-c2ccc(N(C)C)cc2)cc(OC)c1OC
Key: bucket 1

Exercise: State the band of COc1cc(-n2cncc2-c2ccc(N)cc2)cc(OC)c1OC
Key: bucket 1

Exercise: State the band of COc1ccc(-c2[nH]cnc2-c2cc(OC)c(OC)c(OC)c2)cc1F
Key: bucket 3

* * *

assay: Maximum concentration of compound present in plasma measured; type: ADME, organism-based
// false strictly below 200 ng/mL in Cmax; true otherwise

Exercise: Test whether the compound COc1ccc(-c2ocnc2-c2cc(OC)c(OC)c(OC)c2)cc1N records Cmax of 200 ng/mL or higher.
Key: false

Exercise: Test whether the compound COc1ccc(-c2[nH]cnc2-c2cc(OC)c(OC)c(OC)c2)cc1N records Cmax of 200 ng/mL or higher.
Key: false

Exercise: Test whether the compound COc1cc(-c2[nH]cnc2-c2ccc(N(C)C)cc2)cc(OC)c1OC records Cmax of 200 ng/mL or higher.
Key: false

Exercise: Test whether the compound COc1cc(-c2c(-c3ccc4c(ccn4C)c3)ncn2C)cc(OC)c1OC records Cmax of 200 ng/mL or higher.
Key: false

Exercise: Test whether the compound COc1ccc(-c2c(-c3cc(OC)c(OC)c(OC)c3)ncn2C)cc1N records Cmax of 200 ng/mL or higher.
Key: true

Exercise: Test whether the compound COc1cc(-c2ncn(C)c2-c2cc(Cl)c3c(ccn3C)c2)cc(OC)c1OC records Cmax of 200 ng/mL or higher.
Key: false

Exercise: Test whether the compound COc1ccc(-c2ncn(C)c2-c2cc(OC)c(OC)c(OC)c2)cc1N records Cmax of 200 ng/mL or higher.
Key: true

Exercise: Test whether the compound COc1cc(-c2cncn2-c2ccc(N(C)C)cc2)cc(OC)c1OC records Cmax of 200 ng/mL or higher.
Key: false

Exercise: Test whether the compound COc1cc(-c2[nH]cnc2-c2ccc3ccn(C)c3c2)cc(OC)c1OC records Cmax of 200 ng/mL or higher.
Key: false

Exercise: Test whether the compound COc1cc(-c2ncn(C)c2-c2cc(F)c3c(ccn3C)c2)cc(OC)c1OC records Cmax of 200 ng/mL or higher.
Key: true

Exercise: Test whether the compound COc1cc(-c2ncn(C)c2-c2ccc3ccn(C)c3c2)cc(OC)c1OC records Cmax of 200 ng/mL or higher.
Key: false

* * *

biological target: Tubulin beta chain (Bos taurus, UniProt Q6B856); assay: Concentration needed to inhibit tubulin polymerization by 50%
Sequence (Q6B856 whole entry): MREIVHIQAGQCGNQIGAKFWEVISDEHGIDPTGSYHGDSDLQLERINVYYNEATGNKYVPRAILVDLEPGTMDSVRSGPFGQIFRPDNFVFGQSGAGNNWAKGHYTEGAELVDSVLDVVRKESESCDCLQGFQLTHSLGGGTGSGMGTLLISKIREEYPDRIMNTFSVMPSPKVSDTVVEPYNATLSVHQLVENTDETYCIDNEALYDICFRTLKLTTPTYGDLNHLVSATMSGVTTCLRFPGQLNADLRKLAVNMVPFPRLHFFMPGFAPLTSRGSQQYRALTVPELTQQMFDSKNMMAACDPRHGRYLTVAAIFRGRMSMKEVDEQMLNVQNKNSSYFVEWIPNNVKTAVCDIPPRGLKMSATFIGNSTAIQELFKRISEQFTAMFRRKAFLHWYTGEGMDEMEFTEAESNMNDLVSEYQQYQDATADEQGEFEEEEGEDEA
outcomeMeasure: pIC50
// pIC50 is dimensionless: -log10 of concentration (M)

Exercise: Please state recorded pIC50 (tested on Tubulin beta chain (Bos taurus, UniProt Q6B856)) of COc1cc(-c2[nH]cnc2-c2ccc(N(C)C)cc2)cc(OC)c1OC
Key: 5.43

Exercise: Please state recorded pIC50 (tested on Tubulin beta chain (Bos taurus, UniProt Q6B856)) of COc1cc(-n2cncc2-c2ccc(N(C)C)cc2)cc(OC)c1OC
Key: 4.64

Exercise: Please state recorded pIC50 (tested on Tubulin beta chain (Bos taurus, UniProt Q6B856)) of COc1cc(-c2ncoc2-c2ccc(N(C)C)cc2)cc(OC)c1OC
Key: 6.06

Exercise: Please state recorded pIC50 (tested on Tubulin beta chain (Bos taurus, UniProt Q6B856)) of COc1cc(-n2cncc2-c2ccc3c(c2)CCN3C)cc(OC)c1OC
Key: 4.32

Exercise: Please state recorded pIC50 (tested on Tubulin beta chain (Bos taurus, UniProt Q6B856)) of COc1cc(-c2ncn(C)c2-c2ccc3ccn(C)c3c2)cc(OC)c1OC
Key: 5.70

Exercise: Please state recorded pIC50 (tested on Tubulin beta chain (Bos taurus, UniProt Q6B856)) of COc1ccc(-c2c(-c3cc(OC)c(OC)c(OC)c3)ncn2C)cc1N
Key: 4.51

Exercise: Please state recorded pIC50 (tested on Tubulin beta chain (Bos taurus, UniProt Q6B856)) of COc1cc(-c2[nH]cnc2-c2ccc3ccn(C)c3c2)cc(OC)c1OC
Key: 5.96

Exercise: Please state recorded pIC50 (tested on Tubulin beta chain (Bos taurus, UniProt Q6B856)) of COc1ccc(-c2cncn2-c2cc(OC)c(OC)c(OC)c2)cc1N
Key: 5.11

Exercise: Please state recorded pIC50 (tested on Tubulin beta chain (Bos taurus, UniProt Q6B856)) of COc1ccc(-c2cncn2-c2cc(OC)c(OC)c(OC)c2)cc1O
Key: 5.12

Exercise: Please state recorded pIC50 (tested on Tubulin beta chain (Bos taurus, UniProt Q6B856)) of COc1ccc(-c2[nH]cnc2-c2cc(OC)c(OC)c(OC)c2)cc1
Key: 5.55

Exercise: Please state recorded pIC50 (tested on Tubulin beta chain (Bos taurus, UniProt Q6B856)) of COc1cc(-n2ccnc2-c2ccc(N(C)C)cc2)cc(OC)c1OC
Key: 4.46

Exercise: Please state recorded pIC50 (tested on Tubulin beta chain (Bos taurus, UniProt Q6B856)) of COc1ccc(-c2ocnc2-c2cc(OC)c(OC)c(OC)c2)cc1N
Key: 6.04

Exercise: Please state recorded pIC50 (tested on Tubulin beta chain (Bos taurus, UniProt Q6B856)) of COc1ccc(-c2[nH]cnc2-c2cc(OC)c(OC)c(OC)c2)cc1N
Key: 6.17

Exercise: Please state recorded pIC50 (tested on Tubulin beta chain (Bos taurus, UniProt Q6B856)) of COc1cc(-n2cncc2-c2ccc3c(ccn3C)c2)cc(OC)c1OC
Key: 5.74

Exercise: Please state recorded pIC50 (tested on Tubulin beta chain (Bos taurus, UniProt Q6B856)) of COc1ccc(-c2[nH]cnc2-c2cc(OC)c(OC)c(OC)c2)cc1O
Key: 6.14

Exercise: Please state recorded pIC50 (tested on Tubulin beta chain (Bos taurus, UniProt Q6B856)) of COc1ccc(-c2ocnc2-c2cc(OC)c(OC)c(OC)c2)cc1O
Key: 6.01

Exercise: Please state recorded pIC50 (tested on Tubulin beta chain (Bos taurus, UniProt Q6B856)) of COc1cc(-c2cncn2-c2ccc(N(C)C)cc2)cc(OC)c1OC
Key: 3.89

Exercise: Please state recorded pIC50 (tested on Tubulin beta chain (Bos taurus, UniProt Q6B856)) of COc1cc(-n2cncc2-c2ccc3[nH]ccc3c2)cc(OC)c1OC
Key: 4.15

Exercise: Please state recorded pIC50 (tested on Tubulin beta chain (Bos taurus, UniProt Q6B856)) of COc1cc(-c2ncoc2-c2ccc3c(ccn3C)c2)cc(OC)c1OC
Key: 6.10
